For each record, write down the corresponding pKi.
- Tgt: Dihydroorotate dehydrogenase (quinone), mitochondrial (Homo sapiens)
- Sequence (Q02127 whole entry): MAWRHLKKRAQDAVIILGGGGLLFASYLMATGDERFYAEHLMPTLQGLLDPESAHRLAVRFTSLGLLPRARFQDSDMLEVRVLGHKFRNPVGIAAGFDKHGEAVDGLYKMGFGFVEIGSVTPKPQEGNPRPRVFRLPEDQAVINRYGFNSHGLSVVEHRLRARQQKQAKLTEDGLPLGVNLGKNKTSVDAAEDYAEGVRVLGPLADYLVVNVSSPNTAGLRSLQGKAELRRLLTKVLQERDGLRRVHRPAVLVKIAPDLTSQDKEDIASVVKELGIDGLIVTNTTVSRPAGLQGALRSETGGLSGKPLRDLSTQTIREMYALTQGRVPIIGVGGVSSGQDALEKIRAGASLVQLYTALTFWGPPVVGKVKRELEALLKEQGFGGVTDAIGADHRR
- Measurement protocol: Inhibition of human recombinant dihydroorotate dehydrogenase (DHODase)
One number for each entry, as −log10 of the molar value.

Please review the following examples before continuing.
| Substance smiles | Tgt | pKi |
| --- | --- | --- |
| O=C(O)c1c2c(nc3ccc(F)cc13)-c1ccc(-c3ccccc3)cc1OC2 | Dihydroorotate dehydrogenase (quinone), mitochondrial (Homo sapiens) | 7.32 |
| O=C(O)c1c2c(nc3ccc(F)cc13)-c1ccc(-c3ccccc3C(F)(F)F)cc1CC2 | Dihydroorotate dehydrogenase (quinone), mitochondrial (Homo sapiens) | 7.40 |
| O=C(O)c1c2c(nc3ccc(F)cc13)-c1ccc(-c3ccc(C(F)(F)F)cc3)cc1CC2 | Dihydroorotate dehydrogenase (quinone), mitochondrial (Homo sapiens) | 6.43 |
| O=C(O)c1c2c(nc3ccc(F)cc13)-c1ccc(-c3ccccc3)cc1S(=O)(=O)C2 | Dihydroorotate dehydrogenase (quinone), mitochondrial (Homo sapiens) | 6.86 |
| O=C(O)c1c2c(nc3ccc(F)cc13)-c1cccc(Oc3ccccc3)c1CC2 | Dihydroorotate dehydrogenase (quinone), mitochondrial (Homo sapiens) | 6.02 |
| O=C(O)c1c2c(nc3ccc(F)cc13)-c1ccc(-c3ccsc3)cc1CC2 | Dihydroorotate dehydrogenase (quinone), mitochondrial (Homo sapiens) | 7.28 |
| Cc1ccccc1-c1ccc2c(c1)CSc1c-2nc2ccc(F)cc2c1C(=O)O | Dihydroorotate dehydrogenase (quinone), mitochondrial (Homo sapiens) | 7.60 |
| O=C(O)c1c2c(nc3ccc(F)cc13)-c1ccc(-c3cccc(C(F)(F)F)c3)cc1CC2 | Dihydroorotate dehydrogenase (quinone), mitochondrial (Homo sapiens) | 7.37 |

Please examine the following record next.
For record COc1ccccc1-c1ccc2c(c1)CCc1c-2nc2ccc(F)cc2c1C(=O)O the listed pKi is 7.70
